Reported IC50 by item:
# experimental_target: IDO1 (Homo sapiens)
# Sequence (P14902 whole entry): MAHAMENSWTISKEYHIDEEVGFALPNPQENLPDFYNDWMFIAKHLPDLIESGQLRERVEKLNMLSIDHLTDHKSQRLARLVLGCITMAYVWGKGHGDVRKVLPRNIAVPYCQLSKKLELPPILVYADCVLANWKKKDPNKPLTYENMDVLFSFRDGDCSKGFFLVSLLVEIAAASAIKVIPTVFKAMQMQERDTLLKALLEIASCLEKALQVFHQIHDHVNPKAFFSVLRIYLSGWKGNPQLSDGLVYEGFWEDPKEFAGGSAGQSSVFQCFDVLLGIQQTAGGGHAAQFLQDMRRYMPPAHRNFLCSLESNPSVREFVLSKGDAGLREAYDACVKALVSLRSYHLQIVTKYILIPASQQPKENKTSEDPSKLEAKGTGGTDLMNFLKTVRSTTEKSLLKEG
# experiment_notes: IDO1 cellular activity using HEK293 cells transfected with IDO1 expression vector
# Format: cell-based
# Parameters: host or cells: HEK293 cells, transient transfection with Lipofectamine 2000
# condition_summary: 24 h compound incubation, read-out: Inhibitory Activity (IC50)
# Experimental: HEK293 cells were seeded at a density of 30000 cells/well in 100 μl of a culture medium (DMEM supplemented with 10% FBS, penicillin 100 U/ml, and streptomycin 100 μg/ml) in a tissue culture-treated 96 well plate. […] The activities were measured using a IDO1 cell-based assay kit (catalog #72031, BPS Bioscience). […] After reacting at room temperature for 10 minutes, absorbance was measured at 480 nm wavelength. […]
assay_metric: IC50

- C[C@H](C[C@H]1CC[C@@H](c2ccnc3ccc(F)cc32)CC1)Nc1nc2ccc(F)c(F)c2o1: 5.5 nM
- COc1ccc2nc(N[C@H](C)C[C@H]3CC[C@@H](c4ccnc5ccc(F)cc54)CC3)sc2n1: 10.9 nM
- Cc1ccc2c(N[C@H](C)C[C@H]3CC[C@H](c4ccnc5ccc(F)cc54)CC3)nc(Cl)nc2c1: 25.2 nM
- COc1ccc2c(N[C@H](C)C[C@H]3CC[C@@H](c4ccnc5ccc(F)cc54)CC3)nc(Cl)nc2c1: 47.5 nM
- C[C@H](C[C@H]1CC[C@@H](c2ccnc3ccc(F)cc32)CC1)Nc1nc2ccc(F)cc2o1: 9.9 nM
- C[C@H](C[C@H]1CC[C@@H](c2ccnc3ccc(F)cc32)CC1)Nc1nc2cc(F)c(Cl)cc2o1: 6.3 nM
- C[C@H](C[C@H]1CC[C@H](c2ccnc3ccc(F)cc32)CC1)Nc1c(F)c(=O)oc2cc(Br)ccc12: 11.2 nM
- C[C@H](C[C@H]1CC[C@H](c2ccnc3ccc(F)cc32)CC1)Nc1nc(Cl)nc2ccc(Cl)cc12: 72 nM
- C[C@H](C[C@H]1CC[C@@H](c2ccnc3ccc(F)cc32)CC1)Nc1nc2ncc(Cl)cc2o1: 9.1 nM
- C[C@H](C[C@H]1CC[C@@H](c2ccnc3ccc(F)cc32)CC1)Nc1nccc2cc(F)ccc12: 116 nM
- C[C@H](C[C@H]1CC[C@@H](c2ccnc3ccc(F)cc32)CC1)Nc1nc2ccc(Cl)c(Cl)c2o1: 17.2 nM
- C[C@H](C[C@H]1CC[C@@H](c2ccnc3ccc(F)cc32)CC1)Nc1nc(Cl)nc2cc(F)ccc12: 56.6 nM
- C[C@H](C[C@H]1CC[C@@H](c2ccnc3ccc(F)cc32)CC1)Nc1nc(Cl)nc2cc(C(F)(F)F)ccc12: 30.8 nM
- C[C@H](C[C@H]1CC[C@@H](c2ccnc3ccc(F)cc32)CC1)Nc1nc(Cl)nc2c(OC(F)(F)F)cccc12: 276 nM
- C[C@H](C[C@H]1CC[C@@H](c2ccnc3ccc(F)cc32)CC1)Nc1nc(Cl)nc2c(F)cccc12: 18.8 nM
